pKd: −log10 of the molar value.
# merged literature set: pKd with Peptidyl-prolyl cis-trans isomerase A (Homo sapiens, UniProt P62937)
Property measured: pKd

Example cases with answers are listed next.
• C/C=C/C[C@@H](C)[C@@H](O)[C@H]1C(=O)N[C@@H](CC)C(=O)N(C)[C@H](C)C(=O)N(C)[C@@H]([C@H](C)CCN2CCOCC2)C(=O)N[C@@H](C(C)C)C(=O)N(C)[C@@H](CC(C)C)C(=O)N[C@@H](C)C(=O)N[C@H](C)C(=O)N(C)[C@@H](CC(C)C)C(=O)N(C)[C@@H](CC(C)C)C(=O)N(C)[C@@H](C(C)C)C(=O)N1C = 8.96
• C/C=C/C[C@@H](C)[C@@H](O)[C@H]1C(=O)N[C@@H](CC)C(=O)N(C)[C@H](C)C(=O)N(C)[C@@H]([C@H](C)CN(C)CCOC)C(=O)N[C@@H](C(C)C)C(=O)N(C)[C@@H](CC(C)C)C(=O)N[C@@H](C)C(=O)N[C@H](C)C(=O)N(C)[C@@H](CC(C)C)C(=O)N(C)[C@@H](CC(C)C)C(=O)N(C)[C@@H](C(C)C)C(=O)N1C = 8.74

[P] COC(=O)[C@]12CCCN1C(=O)[C@](Cc1ccccc1)(NC(=O)OCc1ccccc1)CC2
[Q] COc1cc(C(C(=O)NC2CCCCC2)N(C(=O)Cc2c[nH]c3ccccc23)c2ccc(C(C)C)cc2)cc(OC)c1OC (centres undefined)
Req: I'm curious, which of these has a smaller pKd number: P or Q ? Your answer should be the label attached to the chosen record.
Resp: P
